The following compounds are listed with their measured IC50 values.
- studySystem: glucosylceramide synthase (GCS) (Homo sapiens)
- Construct: The obtained supernatant was used
- Sequence (Q16739 whole entry): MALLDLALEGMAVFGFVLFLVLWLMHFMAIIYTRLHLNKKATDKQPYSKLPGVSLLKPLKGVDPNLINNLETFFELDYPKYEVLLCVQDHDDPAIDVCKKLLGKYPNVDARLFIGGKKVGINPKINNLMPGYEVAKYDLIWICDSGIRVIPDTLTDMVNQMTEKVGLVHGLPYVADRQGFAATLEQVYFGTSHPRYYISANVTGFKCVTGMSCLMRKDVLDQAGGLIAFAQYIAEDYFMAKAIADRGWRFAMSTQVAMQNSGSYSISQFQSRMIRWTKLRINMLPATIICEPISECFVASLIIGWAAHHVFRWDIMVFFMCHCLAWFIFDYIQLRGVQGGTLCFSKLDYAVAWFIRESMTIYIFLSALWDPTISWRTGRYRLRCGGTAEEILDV
- protocolSummary: GCS enzyme inhibition assay (A549 cell lysate, NBD C6-ceramide, HPLC fluorescence)
- conditions: inhibitory activity against GCS, 37° C., 90 minutes

compound	unitLabel	IC50
CCc1ccc(-c2cc3c(cc2F)C(NC(=O)O[C@@H]2CN4CCC2CC4)C(C)(C)CO3)cc1 (stereo partly shown) [Example 334]	nM	0.33
CC1(C)COc2cc(-c3cccnc3F)ccc2C1NC(=O)O[C@@H]1CN2CCC1CC2 (stereo partly shown) [Example 222]	nM	0.79
CC(C)c1ccc(-c2ccc3c(c2)OCC(C)(C)C3NC(=O)O[C@@H]2CN3CCC2CC3)cc1 (stereo partly shown) [Example 174]	nM	0.35
CN1CCC(NC(=O)O[C@@H]2CN3CCC2CC3)c2ccc(-c3cccc(C(C)(C)C)c3)cc21 (stereo partly shown) [Example 314]	nM	6.47
